target: Protein deacetylase HDAC6 (Homo sapiens); settings: at 10 µM
The campaign covered roughly 5,600 compounds. About 390 (7%) showed an effect of 50% or more. The full list was thinned out, with strong results kept by preference.
measured.quantity: inhibition (%)
Numbers only here, please. The scale is %.

As a guide, the following entries are already answered.
compound="CCCC(=O)O[C@]1(C(=O)CO)CCC2[C@@H]3CCC4=CC(=O)CC[C@]4(C)C3[C@@H](O)C[C@@]21C (stereo not given in full)" measured_quantity=inhibition quantitative_result=13.5
compound=c1ccc(N2CCN(Cc3nc4ccccc4[nH]3)CC2)nc1 measured_quantity=inhibition quantitative_result=20.5
compound=CC(C)(C)c1ccc(-c2nc3c(N4CCN(Cc5ccc6nccnc6c5)CC4)cccc3[nH]2)cc1 measured_quantity=inhibition quantitative_result=110

Task item: Query inhibition for "CCS(=O)(=O)CCn1c([N+](=O)[O-])cnc1C"
Reply: -4.7

Task item: In one line, give reported inhibition of the entry "CSc1ccc(OCc2ncc([N+](=O)[O-])n2C)cc1" .
Reply: 57.1

----------
Below: a set of entries, each annotated with reported inhibition.
Biological target: Protein deacetylase HDAC6 (Homo sapiens) (UniProt Q9UBN7)
Sequence (whole entry): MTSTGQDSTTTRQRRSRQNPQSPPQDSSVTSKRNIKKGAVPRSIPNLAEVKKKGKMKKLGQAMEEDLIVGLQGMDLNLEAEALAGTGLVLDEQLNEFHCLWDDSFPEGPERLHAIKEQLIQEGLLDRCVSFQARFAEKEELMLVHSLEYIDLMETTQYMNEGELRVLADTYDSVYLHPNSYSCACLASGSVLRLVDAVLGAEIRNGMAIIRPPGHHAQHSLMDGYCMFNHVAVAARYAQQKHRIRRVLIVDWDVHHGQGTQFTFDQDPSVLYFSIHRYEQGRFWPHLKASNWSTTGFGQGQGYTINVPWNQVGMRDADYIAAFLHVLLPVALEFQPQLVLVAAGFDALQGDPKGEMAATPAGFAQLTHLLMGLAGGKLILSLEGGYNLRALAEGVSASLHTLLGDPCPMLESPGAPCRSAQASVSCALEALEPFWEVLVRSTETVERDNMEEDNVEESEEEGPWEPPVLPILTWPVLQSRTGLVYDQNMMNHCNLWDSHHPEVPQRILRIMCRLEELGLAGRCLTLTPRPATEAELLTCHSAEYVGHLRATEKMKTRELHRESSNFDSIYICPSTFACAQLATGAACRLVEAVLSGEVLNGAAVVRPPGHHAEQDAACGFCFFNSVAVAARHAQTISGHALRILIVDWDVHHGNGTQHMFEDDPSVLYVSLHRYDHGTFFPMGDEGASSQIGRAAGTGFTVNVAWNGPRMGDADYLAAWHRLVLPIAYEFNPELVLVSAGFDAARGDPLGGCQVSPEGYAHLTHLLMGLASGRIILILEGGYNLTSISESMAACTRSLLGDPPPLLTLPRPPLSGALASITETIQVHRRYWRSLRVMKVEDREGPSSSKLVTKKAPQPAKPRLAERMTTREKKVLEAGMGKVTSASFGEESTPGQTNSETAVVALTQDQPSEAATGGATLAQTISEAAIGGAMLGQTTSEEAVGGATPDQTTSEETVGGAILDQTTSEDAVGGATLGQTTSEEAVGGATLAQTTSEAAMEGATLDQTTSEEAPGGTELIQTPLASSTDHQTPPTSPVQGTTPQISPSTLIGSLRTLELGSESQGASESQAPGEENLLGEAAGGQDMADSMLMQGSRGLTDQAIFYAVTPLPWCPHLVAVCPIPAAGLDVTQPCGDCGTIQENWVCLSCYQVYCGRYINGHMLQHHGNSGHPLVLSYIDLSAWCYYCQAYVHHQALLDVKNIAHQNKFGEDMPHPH
Details: at 10 µM
The whole screen tested about 5,600 compounds, of which about 390 (7%) showed an effect of 50% or more. What follows is part of a selection rich in strong results, with near analogues and random picks from the rest.
Record the value in %, omitting the unit from your answer.

Previously resolved entries follow.
compound=Nc1sc2c(c1C(=O)c1ccc(Cl)cc1)CCCC2 quantitative_result=31.2
compound="CC1(C(=O)O)NCCc2cc(O)c(O)cc21 (configuration not stated)" quantitative_result=-7.17
compound=CC(C)(CCCCCCCCCCC(C)(C)CC(=O)O)CC(=O)O quantitative_result=-0.28
compound=CNC(=O)c1cc2c(cn1)[nH]c1ccccc12 quantitative_result=71.2

Task item: Find the measured inhibition of "O=C(Nc1ccc(C(=O)O)c(O)c1)c1ccccc1" with Protein deacetylase HDAC6 (Homo sapiens) (UniProt Q9UBN7) as test system.
Reply: 68.6

Task item: Check Protein deacetylase HDAC6 (Homo sapiens) (UniProt Q9UBN7) data and give inhibition for CCO/N=C(/C(=O)NC1C(=O)N2C(C(=O)O)=C(Sc3nc(-c4cc[n+](C)cc4)cs3)CS[C@H]12)c1nsc(NP(=O)(O)O)n1 (some centres not stated) .
Reply: 20.6

Task item: Consider the compound "C1CCN2C[C@H]3C[C@H](CN4CCCC[C@@H]34)[C@H]2C1" tested on Protein deacetylase HDAC6 (Homo sapiens) (UniProt Q9UBN7); state its inhibition.
Reply: 30.9

Task item: Identify measured inhibition obtained with Protein deacetylase HDAC6 (Homo sapiens) (UniProt Q9UBN7) for "O=C(Nc1cc2cc[nH]c2cn1)c1ccccc1" .
Reply: 105

Task item: GET inhibition | system: Protein deacetylase HDAC6 (Homo sapiens) (UniProt Q9UBN7) | item: "COc1ccccc1C(=O)Nc1cccc(NC(=O)c2cccc(C)c2)c1"
Reply: 63.7

Task item: Look up Protein deacetylase HDAC6 (Homo sapiens) (UniProt Q9UBN7) data: inhibition of "Cc1noc2c1-c1ccccc1C(c1ccc(Cl)cc1)=N[C@H]2CC(N)=O" , then report it.
Reply: 43.6

Task item: Please look at "Cc1cc(NCCO)nc(-c2ccc(Br)cc2)n1" and tell me its recorded inhibition on Protein deacetylase HDAC6 (Homo sapiens) (UniProt Q9UBN7).
Reply: 85.2

Task item: State inhibition on Protein deacetylase HDAC6 (Homo sapiens) (UniProt Q9UBN7). Entry: "CC1=C(/C=C/C(C)=C/C=C/C(C)=C/C=C/C=C(C)/C=C/C=C(C)/C=C/C2=C(C)C(=O)[C@@H](O)CC2(C)C)C(C)(C)C[C@H](O)C1=O"
Reply: 10.4

Task item: Find the measured inhibition of "O=C(Nc1ccc(Cl)nc1)c1ccc(Cl)cc1" with Protein deacetylase HDAC6 (Homo sapiens) (UniProt Q9UBN7) as test system.
Reply: 27.1

Task item: Please look at "CCCCNc1nc(N)c2[nH]c(=O)n(Cc3ccc(OCCN(C)C)nc3)c2n1" and tell me its recorded inhibition on Protein deacetylase HDAC6 (Homo sapiens) (UniProt Q9UBN7).
Reply: -9.47

Task item: # return inhibition of "O=C(O)C1(c2ccc(-c3ccc(Cl)c(Cl)c3)c(F)c2)CC1" (system: Protein deacetylase HDAC6 (Homo sapiens) (UniProt Q9UBN7))
Reply: 33.4

Task item: Report value: inhibition, system: Protein deacetylase HDAC6 (Homo sapiens) (UniProt Q9UBN7), compound: "Nc1ccc(F)cc1NC(=O)c1ccc(CNC(=O)/C=C/c2cccnc2)cc1"
Reply: -6.65

Task item: Fill: inhibition (Protein deacetylase HDAC6 (Homo sapiens) (UniProt Q9UBN7)) for this compound "O=C(O)c1cc(-c2ccc(F)cc2F)ccc1O"
Reply: 60.9

----------
Biological target: Protein deacetylase HDAC6 (Homo sapiens) (UniProt Q9UBN7)
Sequence (whole entry): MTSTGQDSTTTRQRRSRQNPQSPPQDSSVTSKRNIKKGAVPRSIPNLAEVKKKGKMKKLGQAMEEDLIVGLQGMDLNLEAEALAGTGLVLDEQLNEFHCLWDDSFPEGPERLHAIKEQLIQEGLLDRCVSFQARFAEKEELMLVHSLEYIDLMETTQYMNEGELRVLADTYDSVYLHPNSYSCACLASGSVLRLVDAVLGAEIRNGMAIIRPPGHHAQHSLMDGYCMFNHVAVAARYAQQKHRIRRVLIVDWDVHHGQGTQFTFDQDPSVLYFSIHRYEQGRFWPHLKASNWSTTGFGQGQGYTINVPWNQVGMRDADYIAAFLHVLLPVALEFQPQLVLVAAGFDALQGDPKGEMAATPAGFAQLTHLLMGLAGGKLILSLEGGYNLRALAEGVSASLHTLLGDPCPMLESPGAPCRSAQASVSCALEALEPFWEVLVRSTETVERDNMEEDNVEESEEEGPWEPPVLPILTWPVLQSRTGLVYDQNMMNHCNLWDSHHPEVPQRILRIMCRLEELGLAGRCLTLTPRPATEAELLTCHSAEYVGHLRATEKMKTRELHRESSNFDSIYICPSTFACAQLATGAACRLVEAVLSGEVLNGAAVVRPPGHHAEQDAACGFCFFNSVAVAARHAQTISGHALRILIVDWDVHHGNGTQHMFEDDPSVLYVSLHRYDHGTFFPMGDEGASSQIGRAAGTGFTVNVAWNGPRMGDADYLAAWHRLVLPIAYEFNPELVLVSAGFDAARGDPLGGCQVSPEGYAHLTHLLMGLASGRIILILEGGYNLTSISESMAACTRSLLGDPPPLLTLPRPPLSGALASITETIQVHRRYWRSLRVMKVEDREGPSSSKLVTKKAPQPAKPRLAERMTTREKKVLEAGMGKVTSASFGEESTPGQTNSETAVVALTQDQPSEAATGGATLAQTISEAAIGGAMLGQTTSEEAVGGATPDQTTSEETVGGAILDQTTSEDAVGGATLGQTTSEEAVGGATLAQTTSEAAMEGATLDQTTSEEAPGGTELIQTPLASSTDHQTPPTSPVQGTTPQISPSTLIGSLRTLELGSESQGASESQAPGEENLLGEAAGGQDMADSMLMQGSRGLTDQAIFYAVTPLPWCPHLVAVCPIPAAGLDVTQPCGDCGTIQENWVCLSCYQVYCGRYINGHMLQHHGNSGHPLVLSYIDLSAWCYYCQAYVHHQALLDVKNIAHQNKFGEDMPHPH
Conditions: at 10 µM
Among all 5,600 compounds or so, about 390 (7%) showed an effect of 50% or more. Shown is part of a subset that was picked to be rich in strong results.
Output t for inhibition not less than 30%; output f otherwise.

Task item: Decide: inhibition of C[C@@H]1C(=O)O[C@H]2[C@H](O)C34C5C[C@@H](C(C)(C)C)[C@]36[C@@H](OC(=O)[C@@H]6O)O[C@@]4(C(=O)O5)[C@@]12O (stereo partly specified) >= 30%?
Reply: f

Task item: Is reported inhibition greater than or equal to 30% here: "CC(=O)Nc1cccc(Nc2ncnc(N3CCC(OCc4ccc(OC(F)(F)F)cc4)CC3)n2)c1C"
Reply: f

Task item: Please indicate if the recorded inhibition for "O=C1Nc2ccccc2/C1=C1/Nc2ccccc2/C1=N\O" meets or exceeds 30%.
Reply: t

Task item: Kindly determine if inhibition recorded for "O=C(N/N=C/c1ccc([N+](=O)[O-])o1)c1ccc(O)cc1" is above or exactly 30%.
Reply: f

Task item: Can Cc1c(OCc2cccc(-c3ccc(C(=O)O)cc3)c2)cc2c(c1C)C(=O)C(C1CCCC1)C2 (stereo unspecified) be said to have inhibition at or above 30%?
Reply: f

Task item: Does inhibition meet or surpass 30% for "O=C1Nc2ccccc2/C1=C1/Nc2ccccc2C1=O" ?
Reply: t

Task item: In plain terms: is recorded inhibition at least 30% for "COc1oc(=O)c2cc(N)ccc2c1Cl" ?
Reply: f

Task item: Is reported inhibition greater than or equal to 30% here: "CCS(=O)(=O)c1cccc(-c2cc(C(=O)NC3CCN(C)CC3)c(C)c3[nH]c4ncc(C)cc4c23)c1"
Reply: f

Task item: # bool: inhibition of "N[C@@H](Cc1cc(-c2ccc(Cl)cc2Cl)cc(CP(=O)(O)O)c1O)C(=O)O" >= 30%
Reply: f

Task item: Reported inhibition reaches at least 30% for "O=C1Cc2cc(CCN3CCN(c4nsc5ccccc45)CC3)c(Cl)cc2N1" ?
Reply: f

Task item: Would you say "O=C(NCC1(N2CCN(c3ccccc3)CC2)CCOCC1)c1cccnc1Sc1ccccc1" shows inhibition at minimum 30%?
Reply: f

Task item: Confirm if inhibition reported for the molecule "Oc1nc(O)c2cn[nH]c2n1" is 30% or above.
Reply: f

Task item: Does "O=C(NCCCCCCNC(=O)ON=C1CCCCC1)ON=C1CCCCC1" have a reported inhibition of at least 30%?
Reply: t

Task item: Reported inhibition reaches at least 30% for "CCCCCCCCCCCCCCCC[N+](C)(C)Cc1ccccc1" ?
Reply: t

Task item: Form field: inhibition at least 30%? Entry: "CCCCN(CC)c1nc(C)nc2c1c(C)c(C)n2-c1c(C)cc(C)cc1C"
Reply: f

Task item: Evaluate "O=C1Nc2cc(Br)ccc2/C1=C1/Nc2ccccc2/C1=N\O" : inhibition at minimum 30%?
Reply: t
